Target: mAChR M1 (UniProt P11229)
Test: mAChR M1 cell-based functional assay (calcium mobilization, potentiation of EC20 acetylcholine response)
Conditions: positive allosteric modulation of EC20 ACh response, mAChR M1 CHO-K1 cells; <5 estimated where no plateau
quantity.kind: pEC50

O=C1c2cccnc2CN1Cc1c(F)cc(-c2ccc3ncccc3c2)cc1F
6.56
O=C1c2cccnc2CN1Cc1ccc(-c2ccncc2)cc1F
5.33
Cn1cc2ccc(-c3ccc(CN4Cc5cccnc5C4=O)c(F)c3)cc2n1
5.70
O=C1c2cccnc2CN1Cc1ccc(-c2cnc3ccccc3c2)cc1F
6.41

###

Biological target: mAChR M1 (UniProt P11229)
Experiment: mAChR M1 cell-based functional assay (calcium mobilization, potentiation of EC20 acetylcholine response)
Settings: % ACh maximum at 30 μM; mAChR M1-expressing CHO-K1 cells, calcium flux
quantity.kind: Emax (%)

The cases that follow already have their Emax (%) on record.
O=C1c2ccccc2CN1Cc1ccc(-c2ccc3cnccc3c2)cc1F
38
O=C1c2cccnc2CN1Cc1ccc(-c2cccnc2)cc1F
54
Cn1cc(-c2ccc(CN3Cc4cc(F)cc(F)c4C3=O)c(F)c2)cn1
63

[a] O=C1c2ccccc2CN1Cc1ccc(-n2ccnc2)cc1F
[b] Cn1cc2cc(-c3ccc(CN4Cc5ncncc5C4=O)c(F)c3)ccc2n1
Inquiry: Could you kindly indicate whether a or b has the higher Emax (%) value? Record your answer as the label of the chosen record.
Reply text: b
(b: 80%, a: 51%)

Source of measurements: patent US10654847B2
